# System: Mus musculus
# test: Inhibition of haloperidol-induced catalepsy in Swiss albino mouse assessed as time elapsed until release of forepaw from bar at 100 mg/kg, […] 30 min prior to haloperidol challenge measured after 120 mins by bar test
# Type: functional
# experimental setup: route intraperitoneal, in the assay text read “ip” for “po”
Label True when catalepsy descent time >= 2 min; otherwise False.

molecule smiles	assigned class
COc1ccccc1NC(=S)Nc1ncnc2c1sc(=S)n2-c1ccccc1	False
O=[N+]([O-])c1ccccc1NC(=S)Nc1ncnc2c1sc(=S)n2-c1ccccc1	False
CCn1c(=S)sc2c(NC(=S)Nc3ccccc3)ncnc21	True
O=C(Nc1ccc(F)cc1)Nc1ncnc2c1sc(=S)n2-c1ccccc1	True
COc1ccccc1NC(=O)Nc1ncnc2c1sc(=S)n2-c1ccccc1	False
CCn1c(=S)sc2c(NC(=O)Nc3ccc(F)cc3)ncnc21	True
O=C(Nc1ccccc1Cl)Nc1ncnc2c1sc(=S)n2-c1ccccc1	True
CCn1c(=S)sc2c(NC(=S)Nc3ccccc3OC)ncnc21	False
CCn1c(=S)sc2c(NC(=O)Nc3ccc(Cl)cc3)ncnc21	True
CCn1c(=S)sc2c(NC(=O)Nc3ccccc3OC)ncnc21	False
COc1ccc(NC(=O)Nc2ncnc3c2sc(=S)n3-c2ccccc2)cc1	True

---

# Tested on: Mus musculus
# test: Inhibition of haloperidol-induced catalepsy in Swiss albino mouse assessed as time elapsed until release of forepaw from bar at 100 mg/kg, […] 30 min prior to haloperidol challenge measured after 120 mins by bar test
# Format: functional
# experimental setup: route intraperitoneal, in the assay text read “ip” for “po”
Label class 1 when catalepsy descent time >= 3 min; otherwise class 0.

molecule smiles	assigned class
O=[N+]([O-])c1ccc(NC(=S)Nc2ncnc3c2sc(=S)n3-c2ccccc2)cc1	class 0
S=C(Nc1ccccc1Cl)Nc1ncnc2c1sc(=S)n2-c1ccccc1	class 0
COc1ccc(NC(=S)Nc2ncnc3c2sc(=S)n3-c2ccccc2)cc1	class 0
CCn1c(=S)sc2c(NC(=O)Nc3ccc(OC)cc3)ncnc21	class 0
S=C(Nc1ccccc1)Nc1ncnc2c1sc(=S)n2-c1ccccc1	class 1
CCn1c(=S)sc2c(NC(=O)Nc3ccccc3Cl)ncnc21	class 0
CCn1c(=S)sc2c(NC(=O)Nc3ccccc3[N+](=O)[O-])ncnc21	class 1
CCn1c(=S)sc2c(NC(=O)Nc3ccccc3F)ncnc21	class 0
CCn1c(=S)sc2c(NC(=O)Nc3ccc([N+](=O)[O-])cc3)ncnc21	class 1
O=C(Nc1ccc(Cl)cc1)Nc1ncnc2c1sc(=S)n2-c1ccccc1	class 1
CCn1c(=S)sc2c(NC(=S)Nc3ccc(OC)cc3)ncnc21	class 0

---

The following compounds are shown together with reported Activity values.
# Tested on: Brain
# test: Antioxidant activity in haloperidol-stimulated Swiss albino mouse brain assessed as oxidized glutathione peroxidase level per g of protein (Rvb= 0.765+/- 0.13 U)
# Type: functional
outcome measure: Activity (U)

molecule smiles	reading unit	quantitative readout
COc1ccccc1NC(=S)Nc1ncnc2c1sc(=S)n2-c1ccccc1	U	1.6
CCn1c(=S)sc2c(NC(=S)Nc3ccccc3OC)ncnc21	U	1.331
COc1ccccc1NC(=O)Nc1ncnc2c1sc(=S)n2-c1ccccc1	U	1.134
CCn1c(=S)sc2c(NC(=O)Nc3ccccc3OC)ncnc21	U	1.54

---

# System: Mus musculus
# test: Inhibition of haloperidol-induced catalepsy in Swiss albino mouse assessed as time elapsed until release of forepaw from bar at 100 mg/kg, […] 30 min prior to haloperidol challenge measured after 120 mins by bar test
# Assay type: functional
# experimental setup: route intraperitoneal, in the assay text read “ip” for “po”
The following compounds are shown together with reported catalepsy descent time values.

molecule smiles	reading unit	catalepsy descent time
O=C(CCCN1CCC(O)(c2ccc(Cl)cc2)CC1)c1ccc(F)cc1	min	5
Fc1ccc(NC(=S)Nc2ncnc3c2sc(=S)n3-c2ccccc2)cc1	min	3.25
CCn1c(=S)sc2c(NC(=O)Nc3ccccc3)ncnc21	min	2.4
O=C(Nc1ccccc1F)Nc1ncnc2c1sc(=S)n2-c1ccccc1	min	2.35
O=C(Nc1ccccc1[N+](=O)[O-])Nc1ncnc2c1sc(=S)n2-c1ccccc1	min	2.25
O=C(Nc1ccc([N+](=O)[O-])cc1)Nc1ncnc2c1sc(=S)n2-c1ccccc1	min	2.08
N[C@@H](Cc1ccc(O)c(O)c1)C(=O)O	min	1.47
Fc1ccccc1NC(=S)Nc1ncnc2c1sc(=S)n2-c1ccccc1	min	2.67
O=C(Nc1ccccc1)Nc1ncnc2c1sc(=S)n2-c1ccccc1	min	2.23
S=C(Nc1ccc(Cl)cc1)Nc1ncnc2c1sc(=S)n2-c1ccccc1	min	2.8
